These measurements were taken from a melting point compilation (Tetko et al.; mined from patent text by program, amines drawn as free bases though some values may be those of a salt).

test readout: melting point

Consider the worked cases shown below.
compound: CC(CO)(CO)NCc1cc2c3ccccc3ccc2c2ccccc12
observed result: 200 to 202 °C

compound: O=C1c2ccccc2-n2cnc(Cl)c2[C@@H]2CCCN12
observed result: 233 to 234 °C

compound: CN(c1cc(OC(F)(F)F)cc2cc(C3=NCC(CCO)S3)[nH]c12)S(=O)(=O)c1cccs1 (stereo not given)
observed result: 152 to 153 °C

compound: CCCCCCCCCCCCCCCCCCNc1nc(NCC(O)C2CC(C)(C)NC(C)(C)C2)nc(NCC(O)C2CC(C)(C)NC(C)(C)C2)n1 (stereo not given)
observed result: 104 to 107 °C

Next compound, melting point to be filled in.
Which melting point reading was recorded for the compound CCN(CC)C(=O)n1ccc(S(=O)(=O)c2cccc(F)c2F)n1 ?
78 to 81 °C

* * *

Catalogue of compounds with associated melting point

// below: answered compounds
compound: N#Cc1cc(C(=O)O)ccc1F
melting point: 177 to 178 °C

compound: CCCN1C(=O)C2(c3ccccc3)CC(c3ccc([N+](=O)[O-])cc3)(C2)C1=O
melting point: 144 to 146 °C

compound: CC(C)(C)NC(=O)N1CCn2cc(-c3ccccc3)c(C(N)=O)c2C1
melting point: 156 to 158 °C

// melting point lookup, key: COc1ccc(CCl)c(F)c1OC
44.5 to 47.5 °C

Look up melting point: OC(c1ccc(Cl)cc1)c1cccnc1-n1ccnc1 (centres undefined)
133 to 134 °C

* * *

Listed here: items and their measured melting point.

Examples from the recorded data:
compound: Fc1cccnc1N1CCN(Cc2nc3ccccc3[nH]2)CC1
test readout: melting point
observed result: 210 to 212 °C
--
compound: CNC(=O)N(O)Cc1cc2ccccc2s1
test readout: melting point
observed result: 160 to 161 °C
--
compound: O=C(O)C1Cc2c([nH]c3ccccc23)CN1C(=S)SCCc1ccccc1 (centres undefined)
test readout: melting point
observed result: 89 to 90 °C
--
compound: COC(=O)CCCc1ccc(OCCN(C)c2nc3ccccc3o2)cc1
test readout: melting point
observed result: 117 to 119 °C
--
compound: Nc1nc2ccccc2c2c1nc(-c1ccccc1)n2CCCCNS(=O)(=O)c1ccc(F)cc1
test readout: melting point
observed result: 214 to 216 °C
--
compound: c1ccc(-c2ncc(-c3cnc(-c4ccccc4)[nH]3)cn2)cc1
test readout: melting point
observed result: 253 °C

State the recorded melting point for this entry: COC(=O)C=C(Nc1cc2c(cc1OCc1ccccc1)N(C(=O)OC(C)(C)C)CC2COC(C)=O)C(F)(F)F (centres undefined)
114 to 115 °C

melting point for CCOC(=O)c1cc(Nc2cccc(Cl)c2Cl)c(C(=O)OCC)cc1Nc1cccc(Cl)c1Cl ?
265 to 266 °C

Data request, read-out melting point, for Cc1cc2c(cc1O)C(C1(C3CCCc4ccccc43)CC1)N(C)CC2 (centres undefined)
160 to 163 °C

* * *

test readout: melting point

Some compounds with recorded melting point:
compound: O=C(NCc1ccccc1)c1ccnc(NC(=O)c2cccc3ccccc23)c1
observed result: 65 to 67 °C
//
compound: COC(=O)c1ccc2cc(S)ccc2c1
observed result: 150 to 151 °C
//
compound: Cc1ccc(C)c(NC(=O)CN2C(=O)C3(COc4cc5c(cc43)CCO5)c3ccccc32)c1 (stereo unspecified)
observed result: 250 to 252 °C

What value of melting point has been reported for the following compound? CC(C)c1ccc(-n2nc(C(F)(F)F)cc2-c2ccc(S(C)(=O)=O)cc2)cc1
144 to 146 °C

Sample O=S(=O)(Nc1ccc2c(OCc3coc(-c4ccccc4)n3)cccc2c1)C(F)(F)F — what was its melting point?
195 to 197 °C

Which melting point value is on record for CN1CCCC(Cn2nc(-c3c(-c4ccccc4)nn4ccccc34)ccc2=O)C1 (stereo unspecified) ?
159 to 160 °C

melting point for Ic1ccc(CCc2ccc(I)cc2)cc1 ?
150 to 151 °C

Would you mind telling me what melting point value was observed for Cc1cc(CC#N)cc(CC#N)c1 ?
75 to 78 °C

* * *

Entries and their melting point

Example entries and their recorded answers appear below.
compound: O=C(NCc1ccccc1Cl)c1ccc2cnccc2n1
melting point: 120 to 121 °C

compound: Cc1nc(-c2ccc3c(c2)CCCC3)c(CC(Cl)C(=O)O)o1 (stereo unspecified)
melting point: 141 to 142 °C

compound: CCn1c(=O)c2[nH]c(/C=C/c3ccc(C(F)(F)F)cc3)nc2n(CC)c1=O
melting point: > 280 °C

compound: O=C(NN=Cc1ccnc2ccccc12)c1cccnc1
melting point: 99.6 °C

compound: CCn1nc(C)c2c(Cl)c(CO)cnc21
melting point: 119 to 121 °C

compound: CCCn1c(COC)nc2c(N)nc3ccc(OCCC4CCCN4C)cc3c21 (stereo unspecified)
melting point: 155 to 157 °C

compound: CCOP(=O)(Cc1nnc2c(=O)[nH]c3cc(C(F)(F)F)c(N)cc3n12)OCC
melting point: 260 to 263 °C

compound: CN1CCN(C)C(c2ccc([N+](=O)[O-])cc2)C1=O (stereo unspecified)
melting point: 99 to 102 °C

Which melting point is reported for this compound? CCOC(=O)C(=Cc1cccn2cc(-c3cccc(OC)c3)nc12)N=[N+]=[N-]
109 to 111 °C

Consider the compound shown here: CN1CCC(=O)C(C(c2ccc(Cl)cc2)c2ccc(Cl)cc2)C1 (stereo unspecified) What is its recorded melting point?
146 to 147 °C

* * *

test readout: melting point

molecule: O=C1CCc2c1cccc2-c1ccccc1
melting point: 85 to 90 °C

Item O=C(Cn1c(-c2ccccc2)ncc(NC(=O)OCc2ccccc2)c1=O)NC(Cc1ccccc1)C(O)C(F)(F)F (stereo not given) has what recorded melting point?
198 to 202 °C

I would be grateful if you could share the reported melting point for O=C(Nc1nccs1)c1cn(CC2CCCCC2)c2cc(Cl)ccc12 .
181 to 183 °C

Returns the measured melting point for the input molecule. Input: Oc1cc(Br)c(Cl)c(Br)c1
120 to 122 °C

Record request: melting point value, item O=C1CNc2ncc(I)cc2N1Cc1cc(F)c(F)cc1F
227 to 228 °C

* * *

Reported melting point values for the following compounds.

molecule smiles: CC(C)(C)c1cc(-c2nn(CCO)c3ncccc23)cc(C(C)(C)C)c1O
melting point: 135 to 137 °C
--
molecule smiles: CC(C)Cn1nc(-c2ccccc2)c(-c2ccccc2)c1CO
melting point: 154 °C
--
molecule smiles: CCOc1noc(-c2nc[nH]n2)c1C
melting point: 194 to 196 °C

Fill in the blank: the reported melting point of CC(=O)N1CCC(C(=O)N2CC[C@@H](N(C)C(=O)c3ccc(C(F)(F)F)cc3)[C@H](c3ccc(Cl)c(Cl)c3)C2)CC1 is ____.
122 °C

// melting point lookup, key: Cn1c(C(F)(F)F)cc(=O)n(-c2c(F)cc(Cl)c3c2OC(C)(C)CC3)c1=O
132 to 135 °C

melting point lookup needed for NP(N)(=O)NC(=O)c1ccsc1 , thanks.
269 to 278 °C

What value of melting point has been reported for the following compound? O=[N+]([O-])c1ccccc1NC1CCN(Cc2ccccc2)CC1
93.4 to 94.6 °C

May I ask what melting point has been recorded for O=C1C(=O)N(CCCCl)c2ccccc21 ?
72 to 76.5 °C

Field request: melting point | item: Cc1c(-c2ccc(OCc3ccccc3)c(F)c2)[nH]c2ccc(OCc3ccccc3)cc12
135 to 137 °C

I am curious: what melting point value has been reported for Cn1c(=O)n(CC(=O)OCCF)c(=O)n(-c2cc(Oc3ncc(C(F)(F)F)cc3Cl)ccc2Br)c1=O ?
93 to 95 °C

* * *

Catalogue of melting point readings, one per entry.

Some entries whose results are on file:
compound: COP(=O)(Cc1ccc(NC(=O)/C=C/c2cnn(C)c2-c2ccoc2)cc1)OC
melting point: 176 to 177 °C
//
compound: O=S(=O)(CCCCl)Nc1ccc(OCc2ccc3ccccc3n2)cc1
melting point: 117 °C
//
compound: ClCc1ccc(OCc2ccccc2)cc1
melting point: 74 to 76 °C

Query (compound): CC(=O)N1CCC(Nc2ccccc2Oc2ccc(Cl)cc2Cl)CC1 ; field requested: melting point
145 to 146 °C

Field request: melting point | item: COc1cc2c(c3c1OC(C)(C)C3)C(c1ccc(-c3ccc(NC(C)=O)cc3)cc1)=NC(C)(C)C2
128 to 132 °C

Look up melting point: N#Cc1cc(C(=O)Nc2ccc(F)cn2)nc(C(F)(F)F)c1
186 °C

Record request: melting point value, item CN1CCN(C(=N)Nc2ccccc2-c2cccc(F)c2)CC1
117 to 118 °C

Bench note: what melting point did O=C1NCCN1c1ccc(S(=O)(=O)Nc2ccc3c(c2)Cc2ccccc2-3)cc1 show?
164 to 166 °C

Value lookup for melting point; key = Cc1nc2n(c(=O)c1CCN1CCC(c3noc4cc(F)ccc34)CC1)CC(O)CC2 (stereo not drawn)
156 °C

Would you mind telling me what melting point value was observed for CN(C)CC1COC2(CCN(c3nc4c(cc3F)C=C(C(=O)O)CN4c3ccc(F)cc3F)C2)O1 (stereo not drawn) ?
154 to 155 °C

Request the reported melting point associated with Cc1ccc2c(Cl)cc(C(=O)NCc3ccc(Cl)cc3)c(O)c2n1
128 to 130 °C

Look up melting point for this compound: COc1cccc2c(Oc3cc(-n4c(=O)cc(C(F)(F)F)n(C)c4=O)c(F)cc3C#N)cccc12
109 °C

Bench note: what melting point did CCNC(=O)c1c(NC(=O)c2cc(C(F)(F)F)nn2-c2ncccc2Cl)c(C)cc2nc(C)ccc12 show?
> 230 °C

Given the compound CN(C(=O)OC(C)(C)C)c1cc(OCc2ccccc2)ccc1[N+](=O)[O-] , what is its reported melting point?
108 to 110 °C

Look up melting point for this compound: NNCCCCS(=O)(=O)O
152 to 154 °C

Which melting point value is on record for CC(C)(C)OC(=O)[C@H](O)CCc1ccc([N+](=O)[O-])cc1 ?
41 to 42 °C

Any idea what melting point was measured for COc1cccc(SSc2cccc(OC)c2S(N)(=O)=O)c1S(N)(=O)=O ?
263 °C
